- ASSAY_TEXT: Chemical stability
- Format: physicochemical
- MEASUREMENT_CONTEXT: 2 μM, aqueous buffer pH 7.4
Reported values of chemical stability (% remain) for individual entries
Express your answer in % remain, writing the number without its unit.

Observe how each entry below is paired with its result.
O=C(O)c1ccc(NC(=O)c2c(-c3c(Cl)cccc3C(F)(F)F)noc2-c2ccccc2)cc1 | 95.4
O=C(O)c1ccc(-c2nn(C(=O)c3c(Cl)cccc3C(F)(F)F)c3ccccc23)cc1 [compound 3, MRL-871, reference compound] | 81.0
O=C(O)c1ccc(NCc2c(-c3c(Cl)cccc3C(F)(F)F)noc2-c2cc[nH]c2)cc1 | 95.3

Switching to the query record.
Q: Bench note: what chemical stability (% remain) did O=C(O)c1ccc(NCc2c(-c3c(Cl)cccc3C(F)(F)F)noc2-c2ccco2)cc1 show?
A: 100

----------
- ASSAY_TEXT: Microsomal stability phase II
- Assay type: in vitro ADME, human
- MEASUREMENT_CONTEXT: 5 μM, UDPGA, 1 h, 37 °C
Reported values of microsomal stability phase 2 (% remain) for individual entries
Express your answer in % remain, writing the number without its unit.

O=C(O)c1ccc(NCc2c(-c3c(Cl)cccc3C(F)(F)F)noc2-c2cc[nH]c2)cc1 | 69.8
O=C(O)c1ccc(NCc2c(-c3c(Cl)cccc3C(F)(F)F)noc2-c2ccco2)cc1 | 92.8
O=C(O)c1ccc(NC(=O)c2c(-c3c(Cl)cccc3C(F)(F)F)noc2-c2ccccc2)cc1 | 100

Switching to the query record.
Q: Bench note: what microsomal stability phase 2 (% remain) did O=C(O)c1ccc(-c2nn(C(=O)c3c(Cl)cccc3C(F)(F)F)c3ccccc23)cc1 [compound 3, MRL-871, reference compound] show?
A: 47.1

----------
- ASSAY_TEXT: Plasma protein binding
- Type: in vitro ADME
- MEASUREMENT_CONTEXT: 5 μM, equilibrium dialysis 6 h, 37 °C
MEASURED_ENDPOINT: plasma protein binding (% bound)
Express your answer in % bound, writing the number without its unit.

O=C(O)c1ccc(-c2nn(C(=O)c3c(Cl)cccc3C(F)(F)F)c3ccccc23)cc1 [compound 3, MRL-871, reference compound] | 99.9

Q: Bench note: what plasma protein binding (% bound) did O=C(O)c1ccc(NCc2c(-c3c(Cl)cccc3C(F)(F)F)noc2-c2cc[nH]c2)cc1 [compound 25] show?
A: 99.9

Q: Bench note: what plasma protein binding (% bound) did O=C(O)c1ccc(NCc2c(-c3c(Cl)cccc3C(F)(F)F)noc2-c2ccco2)cc1 [compound 23] show?
A: 100

Q: Bench note: what plasma protein binding (% bound) did O=C(O)c1ccc(NC(=O)c2c(-c3c(Cl)cccc3C(F)(F)F)noc2-c2ccccc2)cc1 [compound 8] show?
A: 97.8

----------
- ASSAY_TEXT: Plasma stability
- Assay type: in vitro ADME
- MEASUREMENT_CONTEXT: 5 μM, 100% plasma, 1 h, 37 °C
Reported values of plasma stability (% remain) for individual entries
Express your answer in % remain, writing the number without its unit.

Observe how each entry below is paired with its result.
O=C(O)c1ccc(NCc2c(-c3c(Cl)cccc3C(F)(F)F)noc2-c2cc[nH]c2)cc1 [compound 25] | 85.9
O=C(O)c1ccc(-c2nn(C(=O)c3c(Cl)cccc3C(F)(F)F)c3ccccc23)cc1 [compound 3, MRL-871, reference compound] | 100
O=C(O)c1ccc(NC(=O)c2c(-c3c(Cl)cccc3C(F)(F)F)noc2-c2ccccc2)cc1 [compound 8] | 99.9

Q: Bench note: what plasma stability (% remain) did O=C(O)c1ccc(NCc2c(-c3c(Cl)cccc3C(F)(F)F)noc2-c2ccco2)cc1 [compound 23] show?
A: 86.5
